Biological target: NADPH oxidase 4 (Homo sapiens)
Sequence (whole entry): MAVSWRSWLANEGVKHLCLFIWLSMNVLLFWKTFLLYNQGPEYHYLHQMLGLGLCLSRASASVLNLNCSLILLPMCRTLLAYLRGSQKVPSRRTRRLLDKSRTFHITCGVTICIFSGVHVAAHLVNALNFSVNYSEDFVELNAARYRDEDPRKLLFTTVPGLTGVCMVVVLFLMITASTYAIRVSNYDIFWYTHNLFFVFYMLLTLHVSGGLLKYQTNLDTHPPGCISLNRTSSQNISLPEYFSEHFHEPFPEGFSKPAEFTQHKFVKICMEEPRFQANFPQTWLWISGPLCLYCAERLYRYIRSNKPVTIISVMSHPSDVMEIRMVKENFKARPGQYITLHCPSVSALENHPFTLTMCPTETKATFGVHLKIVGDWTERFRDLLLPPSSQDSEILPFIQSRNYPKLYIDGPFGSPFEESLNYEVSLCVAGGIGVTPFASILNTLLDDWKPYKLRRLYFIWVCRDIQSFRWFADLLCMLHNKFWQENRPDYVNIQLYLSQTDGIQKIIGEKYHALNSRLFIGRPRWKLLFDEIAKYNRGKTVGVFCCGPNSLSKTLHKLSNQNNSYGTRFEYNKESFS
Experiment: Inhibition of NOX4 expressed in HEK293 FS cells at 10 uM assessed as H2O2 production by H2O2/Tyr/LPO assay substituted with 3 uM H2O2
Type: cell-based
Settings: values are per cent of control
This listing pairs molecules with measured % inhibition of H2O2 signal (cell-free redox counter-screen).
Report only the number, with the unit % understood.

Below: 8 molecules and their reported % inhibition of H2O2 signal (cell-free redox counter-screen).
CC(C)c1cc(/C=C2\C(=O)Nc3ccccc32)cc(C(C)C)c1O : -0.88
O=c1c2cc(O)c(O)cc2c2cc(O)c(O)cc2n1Cc1cc([N+](=O)[O-])ccc1O : -4.8
O=C(O)c1cc(NCc2cc(O)ccc2O)ccc1O : 72.4
COc1cc(O)cc2oc(-c3ccc(O)c(O)c3)c(O)c(=O)c12 : 3.17
O=C(N/N=C/c1cccc(O)c1O)C(=O)N/N=C/c1cccc(O)c1O : -4.58
N#Cc1ccccc1Cn1c(=O)c2cc(O)c(O)cc2c2cc(O)c(O)cc21 : 4.8
O=C(N/N=C/c1ccc(O)c(O)c1)C(=O)N/N=C/c1ccc(O)c(O)c1 : 7.6
O=C1Nc2ccc([N+](=O)[O-])cc2/C1=C/c1ccc(O)c(O)c1 : 0.39

**Query** Please look up its % inhibition of H2O2 signal (cell-free redox counter-screen): O=c1c(O)c(-c2ccc(O)cc2)oc2cc(O)cc(O)c12
**Result** 2.09

**Query** Please look up its % inhibition of H2O2 signal (cell-free redox counter-screen): COc1cc(CCNC(=O)C(=O)Nc2cccc(N)c2)ccc1O
**Result** -3.3

**Query** Please look up its % inhibition of H2O2 signal (cell-free redox counter-screen): COC(=O)c1cc(NCc2ccccc2O)ccc1O
**Result** 3.83

**Query** Please look up its % inhibition of H2O2 signal (cell-free redox counter-screen): O=c1c2cc(O)c(O)cc2c2cc(O)c(O)cc2n1Cc1cccc([N+](=O)[O-])c1
**Result** -4.9

**Query** Please look up its % inhibition of H2O2 signal (cell-free redox counter-screen): O=c1c2cc(O)c(O)cc2c2cc(O)c(O)cc2n1Cc1ccc([N+](=O)[O-])cc1
**Result** -6.11

**Query** Please look up its % inhibition of H2O2 signal (cell-free redox counter-screen): Nc1ccc(Nc2ncnc3c2sc2ccc(N)cc23)cc1
**Result** -2.78

**Query** Please look up its % inhibition of H2O2 signal (cell-free redox counter-screen): COc1cc(/C=C2\C(=O)Nc3ccc(NC(C)=O)cc32)ccc1O
**Result** -5.16

**Query** Please look up its % inhibition of H2O2 signal (cell-free redox counter-screen): Nc1cccc(Nc2ncnc3c2sc2ccc(N)cc23)c1
**Result** 17.9

**Query** Please look up its % inhibition of H2O2 signal (cell-free redox counter-screen): O=c1cc(-c2ccc(O)cc2)oc2cc(O)cc(O)c12
**Result** -1.2

**Query** Please look up its % inhibition of H2O2 signal (cell-free redox counter-screen): O=c1c2cc(O)c(O)cc2c2cc(O)c(O)cc2n1Cc1ccccc1S(=O)(=O)c1ccccc1
**Result** -1.05

**Query** Please look up its % inhibition of H2O2 signal (cell-free redox counter-screen): O=c1c(O[C@H]2O[C@H](CO)[C@@H](O)[C@H](O)[C@H]2O)c(-c2ccc(O)c(O)c2)oc2cc(O)cc(O)c12
**Result** -1.86

**Query** Please look up its % inhibition of H2O2 signal (cell-free redox counter-screen): O=C(NCCc1ccc(O)c(O)c1)C(=O)Nc1cccc([N+](=O)[O-])c1
**Result** -3.5

**Query** Please look up its % inhibition of H2O2 signal (cell-free redox counter-screen): O=C(O)c1cc(NCc2ccccc2O)ccc1O
**Result** 5.35

These entries and their values trace back to ChEMBL document CHEMBL1240523.
